Data origin, for the record: the NIST ThermoML archive (doi:10.1016/j.jct.2018.12.039)

Quick reference for mass density among some compounds
Settings: 308.15 K; 100 kPa; Liquid; Vibrating tube method
Numbers after ± are expanded uncertainties.
# number then unit; no other words

| smi | mass density |
| --- | --- |
| Cc1cccc(O)c1 | 1021.7 ± 1.2 kg/m3 |
| Cc1ccc(O)cc1 | 1022.56 ± 1.2 kg/m3 |
| CCO | 776.59 ± 1.2 kg/m3 |

Next, consider the following compound.
input: In one line, give reported mass density of the entry Cc1ccccc1O .
output: 1032.58 ± 1.2 kg/m3

* * *

Settings: 313.15 K; 100 kPa; Liquid; Vibrating tube method
Below, each of the compounds is paired with its reported mass density value.
// note: answer is a bare numeric in kg/m3

Example compounds with recorded mass density:
| compound | mass density, kg/m3 |
| --- | --- |
| Cc1ccccc1O [2-methylphenol] | 1028.19 |
| CCO [ethanol] | 772.23 |
| Cc1ccc(O)cc1 [4-methylphenol] | 1018.64 |

Let us move to another entry and its mass density.
input: Using known records, supply mass density for Cc1cccc(O)c1 [3-methylphenol]
output: 1017.69

* * *

Settings: 318.15 K; 100 kPa; Liquid; Vibrating tube method
reportedProperty: mass density (kg/m3)
Write down the numeric answer in kg/m3 and omit the unit.

# annotated cases, reported mass density shown
| smi | outputUnit | mass density |
| --- | --- | --- |
| Cc1ccc(O)cc1 | kg/m3 | 1014.68 |
| Cc1ccccc1O | kg/m3 | 1023.82 |
| Cc1cccc(O)c1 | kg/m3 | 1013.65 |

Continue with the molecule presented below.
input: For the molecule CCO , report mass density.
output: 767.61
